target or test system: lactoferrin (LF) (bovine (milk), UniProt P24627 20-708)
Sequence (P24627 20-708): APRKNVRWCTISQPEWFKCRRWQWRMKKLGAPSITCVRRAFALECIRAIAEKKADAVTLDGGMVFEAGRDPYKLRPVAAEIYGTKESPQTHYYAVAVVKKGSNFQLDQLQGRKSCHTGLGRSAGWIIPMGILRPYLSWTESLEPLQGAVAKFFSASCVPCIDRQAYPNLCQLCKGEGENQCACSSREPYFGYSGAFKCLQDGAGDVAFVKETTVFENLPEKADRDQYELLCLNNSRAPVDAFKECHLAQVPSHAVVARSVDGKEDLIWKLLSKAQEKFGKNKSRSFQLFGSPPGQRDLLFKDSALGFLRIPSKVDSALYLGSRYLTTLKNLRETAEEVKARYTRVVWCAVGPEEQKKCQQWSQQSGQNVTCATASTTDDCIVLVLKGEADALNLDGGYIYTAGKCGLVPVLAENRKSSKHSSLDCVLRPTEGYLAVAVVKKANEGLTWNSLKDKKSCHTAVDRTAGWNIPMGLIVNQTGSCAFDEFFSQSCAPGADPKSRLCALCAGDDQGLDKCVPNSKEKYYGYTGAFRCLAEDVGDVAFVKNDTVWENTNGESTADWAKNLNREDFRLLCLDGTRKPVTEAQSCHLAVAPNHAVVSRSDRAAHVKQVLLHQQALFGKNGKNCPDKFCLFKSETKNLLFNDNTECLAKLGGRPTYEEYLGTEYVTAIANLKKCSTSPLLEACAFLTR
assay overview: RIFTS (porous Si interferometry); PEG-passivated, LF-spiked porcine GI fluid, 37 C; apparent, LOD 600 nM suggests uM; Selection buffer: PBS (137 mM NaCl, 10 mM Na2HPO4, 2.7 mM KCl, 2 mM KH2PO4) + 1 mM MgCl2, pH 7.4, room temperature; GI fluid at 37 C
reported conditions: protein: commercial; label: none; single strand
property measured: pKd
By convention, pKd is the negative base-10 log of a molar concentration.

[Q] Consider the binder Lac 9-2 anti-LF aptamer with T10 spacer (ssDNA, 3'-amino, coupled via NHS/EDC to carboxylated porous Si) DNA: CAGGCAGGACACCGTAACCGGTGCATCTATGGCTACTAGCTCTTCCTGCCTATTTTTTTTTT and give its measured pKd.
[A] 7.93
